test.description: Clinical pharmacokinetics of mCyd after oral val-mCyd
condition.parameters: human, plasma, 50 mg, Tmax (Mean), mCyd in plasma, val-mCyd 50 mg PO, Day 15

compound: CC1(O)C(O)C(CO)OC1n1ccc(N)nc1=O (stereo not shown)
Tmax: 2.2 h

* * *

Tested on: CVB-4
test.description: microbe, parasite or virus in culture
Type: cell-based, Coxsackievirus B-4
condition.parameters: Coxsackievirus, read-out: EC50 CVB-4
pEC50: −log10 of the molar value.
test.readout: pEC50

compound: CC1(O)C(O)C(CO)OC1n1ccc(N)nc1=O (stereo not shown)
test.readout: pEC50
recorded.value: 4.89

* * *

test.description: Cytotoxicity (cell proliferation) assay
condition.parameters: human, HepG2 hepatoma cells, CC50, HepG2, rapid cell division

compound: CC1(O)C(O)C(CO)OC1n1ccc(N)nc1=O (stereo not shown)
CC50 at 4 days [µM]: 161

* * *

test.description: Cytotoxicity (Table 10)
condition.parameters: rhesus monkey, MA-104 cells, CC50, MA-104, Parainfluenza type 3 row

molecule: CC1(O)C(O)C(CO)OC1n1ccc(N)nc1=O (stereo not shown)
CC50: > 200 µM

* * *

test.description: Clinical pharmacokinetics of mCyd after oral val-mCyd
condition.parameters: human, plasma, 100 mg, Cmax (Mean), mCyd in plasma, val-mCyd 100 mg PO, Day 15
test.readout: Cmax (ng/mL)

compound: CC1(O)C(O)C(CO)OC1n1ccc(N)nc1=O (stereo not shown) [mCyd]
recorded.value: 1050

* * *

test.description: in vitro
condition.parameters: rhesus monkey
test.readout: CC50

compound: CC1(O)C(O)C(CO)OC1n1ccc(N)nc1=O (stereo not shown)
test.readout: CC50
recorded.value: > 200 µM

* * *

test.description: Human bone marrow clonogenic assay
test.readout: CC50 (µM)

molecule: CC1(O)C(O)C(CO)OC1n1ccc(N)nc1=O (stereo not shown)
test.readout: CC50
recorded.value: 14.1

* * *

Tested on: BVDV New York-1 ncp in MDBK cells
test.description: Yield reduction assay
Format: cell-based, bovine viral diarrhea virus
condition.parameters: Bovine viral diarrhea virus isolates and strains

compound: CC1(O)C(O)C(CO)OC1n1ccc(N)nc1=O (stereo not shown) [mCyd]
study.system: BVDV New York-1 ncp in MDBK cells
EC50 [nM]: 300

* * *

test.description: Cytotoxicity (Table 10)
condition.parameters: dog, MDCK cells, Influenza A/H1N1 row

molecule: CC1(O)C(O)C(CO)OC1n1ccc(N)nc1=O (stereo not shown) [mCyd]
CC50: > 200 µM
